Source: patent US12662489B2

molecular target: MTHFD2 recombinant human enzyme (Homo sapiens); assay: MTHFD2 inhibition assay (NAD(P)H-Glo luminescence); details: selectivity of MTHFD2 inhibition over MTHFD1, band
Value kind: MTHFD1/MTHFD2 IC50 ratio

Look over these answered cases.
>>> test_result("COC[C@H]1CN(c2cc(C)c3c4c(c(=O)oc3c2C)CN(C(=O)c2ccc(C(=O)NS(=O)(=O)N(C)C)c(OC3CCCC3)c2F)CC4)CCN1C")
"F (<3)"
>>> test_result("COC[C@H]1CN(c2ccc3c4c(c(=O)oc3c2C)CN(C(=O)c2cc(Cl)c(C(=O)NS(=O)(=O)N(C)C)c(N3CC5CC5C3)c2)CC4)CCN1C (stereo partly drawn)")
"H (>9.0 to 30)"
>>> test_result("CCN1CCN(c2ccc3c4c(c(=O)oc3c2C)CN(C(=O)c2ccc(C(=O)NS(=O)(=O)N3CCCC3)c(OC3CCC3)c2F)CC4)C[C@@H]1COC")
"F (<3)"
>>> test_result("CCOc1c(C(=O)NS(=O)(=O)N2CC3CCC(C3)C2)ccc(C(=O)N2CCc3c(c(=O)oc4c(C)c(N5CCN(C)[C@@H](COC)C5)ccc34)C2)c1F")
"F (<3)"

Field: next compound
Prompt line: Any idea what MTHFD1/MTHFD2 IC50 ratio came out for `COC[C@H]1CN(c2cc(C)c3c4c(c(=O)oc3c2C)CN(C(=O)c2ccc(C(=O)NS(=O)(=O)N3CCC(F)CC3)c(OC)c2F)CC4)CCN1C` on MTHFD2 recombinant human enzyme (Homo sapiens)?
Response line: H (>9.0 to 30)

====

target: human α4β2 neuronal nicotinic receptor (Homo sapiens, UniProt P17787+P43681); construct: host or cells: SH-SY5Y cells (membrane homogenates); assay: α4β2 neuronal nicotinic receptor assay (agonist radioligand, [3H]cytisine); assay type: binding
Sequence (P43681 29-627 limits assumed): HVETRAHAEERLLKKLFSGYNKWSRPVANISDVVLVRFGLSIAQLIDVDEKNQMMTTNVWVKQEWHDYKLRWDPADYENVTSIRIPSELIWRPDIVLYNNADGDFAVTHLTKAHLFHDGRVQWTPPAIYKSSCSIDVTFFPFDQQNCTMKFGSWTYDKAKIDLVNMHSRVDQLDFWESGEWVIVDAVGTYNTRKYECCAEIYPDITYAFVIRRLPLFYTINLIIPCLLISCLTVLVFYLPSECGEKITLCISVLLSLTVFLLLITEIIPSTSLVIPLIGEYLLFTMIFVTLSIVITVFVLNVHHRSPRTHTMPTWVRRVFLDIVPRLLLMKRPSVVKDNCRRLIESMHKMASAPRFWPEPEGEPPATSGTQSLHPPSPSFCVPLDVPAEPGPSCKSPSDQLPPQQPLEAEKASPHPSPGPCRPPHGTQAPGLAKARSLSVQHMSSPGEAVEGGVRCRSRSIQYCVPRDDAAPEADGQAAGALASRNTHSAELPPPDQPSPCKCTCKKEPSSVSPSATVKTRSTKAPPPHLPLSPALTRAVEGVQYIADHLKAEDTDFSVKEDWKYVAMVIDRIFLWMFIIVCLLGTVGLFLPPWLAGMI
Sequence (P17787 26-502): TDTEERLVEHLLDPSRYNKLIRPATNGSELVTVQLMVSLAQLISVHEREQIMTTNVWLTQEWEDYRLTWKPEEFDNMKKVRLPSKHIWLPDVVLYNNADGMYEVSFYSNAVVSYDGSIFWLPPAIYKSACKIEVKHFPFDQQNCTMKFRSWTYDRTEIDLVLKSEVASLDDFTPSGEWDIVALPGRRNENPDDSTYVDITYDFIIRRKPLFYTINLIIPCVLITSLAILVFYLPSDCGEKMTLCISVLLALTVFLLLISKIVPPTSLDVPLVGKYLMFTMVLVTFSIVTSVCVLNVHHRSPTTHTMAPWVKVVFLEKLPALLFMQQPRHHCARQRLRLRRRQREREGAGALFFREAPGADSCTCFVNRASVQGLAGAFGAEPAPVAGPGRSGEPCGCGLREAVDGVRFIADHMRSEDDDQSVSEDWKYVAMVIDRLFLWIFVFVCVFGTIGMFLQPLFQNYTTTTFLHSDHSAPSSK
Value kind: IC50

Prompt line: Field request: IC50 | item: Cc1c(N2CCN(C)[C@@H](C)C2)ccc2c3c(c(=O)oc12)CN(C(=O)c1ccc(NS(C)(=O)=O)c(OC(F)(F)F)c1)CC3 [Reference Example 1, reference compound]
Response line: < 2000 nM

====

molecular target: MTHFD2 recombinant human enzyme (Homo sapiens, UniProt P13995); assay: MTHFD2 inhibition assay (NAD(P)H-Glo luminescence); conditions: selectivity of MTHFD2 inhibition over MTHFD1, band
Sequence (P13995 36-350): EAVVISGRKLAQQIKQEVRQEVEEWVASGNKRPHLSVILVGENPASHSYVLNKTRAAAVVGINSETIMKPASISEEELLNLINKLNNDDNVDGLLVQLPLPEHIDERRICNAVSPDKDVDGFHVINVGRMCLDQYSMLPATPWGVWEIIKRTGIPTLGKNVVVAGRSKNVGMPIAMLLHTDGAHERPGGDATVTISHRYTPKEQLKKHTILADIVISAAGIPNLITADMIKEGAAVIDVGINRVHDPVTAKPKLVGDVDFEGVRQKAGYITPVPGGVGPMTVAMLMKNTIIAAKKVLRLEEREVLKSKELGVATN
Value kind: MTHFD1/MTHFD2 IC50 ratio

Look over these answered cases.
>>> test_result("COC[C@H]1CN(c2cc(C)c3c4c(c(=O)oc3c2C)CN(C(=O)c2ccc(C(=O)NS(=O)(=O)N3CCCC3)cc2F)CC4)CCN1C")
"J (>30)"
>>> test_result("COC[C@H]1CN(c2cc(C)c3c4c(c(=O)oc3c2C)CN(C(=O)c2cc(OC3CC3)c(C(=O)NS(=O)(=O)N3C5CCC3CC5)cc2F)CC4)CCN1C")
"J (>30)"
>>> test_result("COC[C@H]1CN(c2cc(C)c3c4c(c(=O)oc3c2C)CN(C(=O)c2cc(OC)c(C(=O)NS(=O)(=O)N3CCCC3)cc2Cl)CC4)CCN1C")
"J (>30)"
>>> test_result("COC[C@H]1CN(c2ccc3c4c(c(=O)oc3c2C)CN(C(=O)c2ccc(C(=O)NS(=O)(=O)C3(C)CC3)c(N3C5CCC3CC5)c2)CC4)CCN1C")
"F (<3)"

Prompt line: Field request: MTHFD1/MTHFD2 IC50 ratio | item: `COC[C@H]1CN(c2ccc3c4c(c(=O)oc3c2Cl)CN(C(=O)c2ccc(C(=O)NS(=O)(=O)N3CCCC3)c(OC3CCC3)c2F)CC4)CCN1C`
Response line: F (<3)

Prompt line: Field request: MTHFD1/MTHFD2 IC50 ratio | item: `COC[C@H]1CN(c2cc(C)c3c4c(c(=O)oc3c2C)CN(C(=O)c2ccc(C(=O)NS(=O)(=O)N3CCCC3)c(N3CCC(F)(F)C3)c2)CC4)CCN1C`
Response line: H (>9.0 to 30)

Prompt line: Field request: MTHFD1/MTHFD2 IC50 ratio | item: `COC[C@H]1CN(c2ccc3c4c(c(=O)oc3c2Cl)CN(C(=O)c2ccc(C(=O)NS(=O)(=O)N(C)C(C)C)c(O[C@@H]3C[C@@H]5C[C@@H]5C3)c2F)CC4)CCN1C`
Response line: F (<3)

Prompt line: Field request: MTHFD1/MTHFD2 IC50 ratio | item: `COC[C@H]1CN(c2cc(C)c3c4c(c(=O)oc3c2C)CN(C(=O)c2ccc(C(=O)NS(=O)(=O)N(C)C)c(OC3CCC3)c2C)CC4)CCN1C`
Response line: G (^ 3 to 9.0)

Prompt line: Field request: MTHFD1/MTHFD2 IC50 ratio | item: `COC[C@H]1CN(c2cc(C)c3c4c(c(=O)oc3c2C)CN(C(=O)c2ccc(C(=O)NS(=O)(=O)N3CCCC3)cc2Cl)CC4)CCN1C`
Response line: J (>30)

Prompt line: Field request: MTHFD1/MTHFD2 IC50 ratio | item: `COC[C@@H]1CN(c2ccc3c4c(c(=O)oc3c2C)CN(C(=O)c2ccc(C(=O)NS(=O)(=O)N3CCCC3)c(OC3CCC3)c2F)CC4)CCN1C`
Response line: F (<3)

Prompt line: Field request: MTHFD1/MTHFD2 IC50 ratio | item: `COC[C@H]1CN(c2cc(C)c3c4c(c(=O)oc3c2C)CN(C(=O)c2cc(N(C)C)c(C(=O)NS(=O)(=O)N3CCC[C@@H]3C(F)(F)F)cc2F)CC4)CCN1C`
Response line: H (>9.0 to 30)

Prompt line: Field request: MTHFD1/MTHFD2 IC50 ratio | item: `COC[C@H]1CN(c2ccc3c4c(c(=O)oc3c2C)CN(C(=O)c2cc(F)c(C(=O)NS(=O)(=O)N(C)C)c(N3C5CCC3CC5)c2)CC4)CCN1C`
Response line: F (<3)

====

Target: MTHFD1 recombinant human enzyme (Homo sapiens)
Sequence (P11586 2-291 limits assumed): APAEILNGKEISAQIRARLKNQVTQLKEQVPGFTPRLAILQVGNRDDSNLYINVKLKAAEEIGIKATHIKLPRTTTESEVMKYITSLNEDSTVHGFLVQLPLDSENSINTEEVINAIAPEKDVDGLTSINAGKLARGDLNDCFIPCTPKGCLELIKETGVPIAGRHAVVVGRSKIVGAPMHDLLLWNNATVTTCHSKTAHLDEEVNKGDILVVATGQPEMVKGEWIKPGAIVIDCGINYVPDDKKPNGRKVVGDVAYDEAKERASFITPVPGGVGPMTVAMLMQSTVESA
Experiment: MTHFD1 inhibition assay (NAD(P)H-Glo luminescence)
Conditions: MTHFD1 IC50, recombinant human enzyme 200 nM, NADP, band
pIC50: −log10 of the molar value.
Readings of pIC50 for the listed compounds

>>> test_result("COC[C@H]1CN(c2ccc3c4c(c(=O)oc3c2Cl)CN(C(=O)c2ccc(C(=O)NS(=O)(=O)C3(C)CC3)c(O[C@@H]3C[C@@H]5C[C@@H]5C3)c2F)CC4)CCN1C")
"8.00 to 9.00"
>>> test_result("CCOc1c(C(=O)NS(=O)(=O)N2CC3CCC(C3)C2)ccc(C(=O)N2CCc3c(c(=O)oc4c(C)c(N5CCN(C)[C@@H](COC)C5)cc(C)c34)C2)c1F")
"6.00 to 7.00"

Prompt line: Field request: pIC50 | item: `CCOc1c(C(=O)NS(=O)(=O)N(C2CC2)C2CC2)ccc(C(=O)N2CCc3c(c(=O)oc4c(C)c(N5CCN(C)[C@@H](COC)C5)cc(C)c34)C2)c1F`
Response line: 7.00 to 8.00

====

molecular target: MTHFD1 recombinant human enzyme (Homo sapiens, UniProt P11586); assay: MTHFD1 inhibition assay (NAD(P)H-Glo luminescence); conditions: MTHFD1 IC50, recombinant human enzyme 200 nM, NADP, band
Readings of IC50 for the listed compounds

>>> test_result("COC[C@H]1CN(c2cc(C)c3c4c(c(=O)oc3c2C)CN(C(=O)c2ccc(C(=O)NS(=O)(=O)N(C)C(C)C)c(OC3CCCC3)c2F)CC4)CCN1C [Example 24]")
"1 to 10 nM"
>>> test_result("COC[C@H]1CN(c2cc(C)c3c4c(c(=O)oc3c2C)CN(C(=O)c2ccc(C(=O)NS(=O)(=O)C3(C)CC3)c(N3CCCC(F)(F)C3)c2)CC4)CCN1C [Example 75]")
"1 to 10 nM"
>>> test_result("COC[C@H]1CN(c2cc(C)c3c4c(c(=O)oc3c2C)CN(C(=O)c2ccc(C(=O)NS(=O)(=O)N3CCCC3)c(N3CCC[C@@H]3C)c2)CC4)CCN1C [Example 122]")
"10 to 100 nM"
>>> test_result("COC[C@H]1CN(c2cc(C)c3c4c(c(=O)oc3c2C)CN(C(=O)c2ccc(C(=O)NS(=O)(=O)N3CCCC3)c(N3CC5CC5C3)c2)CC4)CCN1C (some centres unmarked) [Example 126]")
"10 to 100 nM"

Prompt line: Field request: IC50 | item: [2H]C([2H])([2H])Oc1cc(C(=O)N2CCc3c(c(=O)oc4c(C)c(N5CCN(C)[C@@H](COC)C5)cc(Cl)c34)C2)c(F)cc1C(=O)NS(=O)(=O)N1CC2CC2C1 (some centres unmarked) [Example 327]
Response line: 100 to 1000 nM
